# Assay info: single intravenous dose pharmacokinetics in Sprague Dawley rats
# Format: in vivo
# Protocol conditions: plasma, rat, female, single IV 5 mg/kg
Assay readout: AUC
Phrase the answer as number then unit, nothing more needed.

So for `CCOCc1cnc(Cl)nc1Oc1ccc2c(ccc3sc4c(c32)NC[C@@H](C)NC4=O)n1` , the logged AUC turned out to be 3950 ng·h/mL

----------
# Assay info: single oral dose pharmacokinetics in CD-1 mice
# Assay type: in vivo, mouse
# Protocol conditions: CD-1, plasma; mouse, male, single oral 15 mg/kg
Assay readout: AUC (ng·h/mL)
Numeric only. Scale: ng·h/mL

So for `CCOCc1cnc(Cl)nc1Oc1ccc2c(ccc3sc4c(c32)NC[C@@H](C)NC4=O)n1` , the logged AUC turned out to be 2870

// data source = patent US20220251105A1
